- System Under Test: UniProt P09470
Where a SMILES comes first, the peptide text is derived from it.
Quantity Name: IC50 (µM)

1) CC(C)C[C@H](NC(=O)[C@@H](N)Cc1ccccc1)C(=O)O (H-Phe-Leu-OH): 700

====

- System Under Test: Angiotensin-converting enzyme (Mus musculus)
- Sequence (P09470 whole entry): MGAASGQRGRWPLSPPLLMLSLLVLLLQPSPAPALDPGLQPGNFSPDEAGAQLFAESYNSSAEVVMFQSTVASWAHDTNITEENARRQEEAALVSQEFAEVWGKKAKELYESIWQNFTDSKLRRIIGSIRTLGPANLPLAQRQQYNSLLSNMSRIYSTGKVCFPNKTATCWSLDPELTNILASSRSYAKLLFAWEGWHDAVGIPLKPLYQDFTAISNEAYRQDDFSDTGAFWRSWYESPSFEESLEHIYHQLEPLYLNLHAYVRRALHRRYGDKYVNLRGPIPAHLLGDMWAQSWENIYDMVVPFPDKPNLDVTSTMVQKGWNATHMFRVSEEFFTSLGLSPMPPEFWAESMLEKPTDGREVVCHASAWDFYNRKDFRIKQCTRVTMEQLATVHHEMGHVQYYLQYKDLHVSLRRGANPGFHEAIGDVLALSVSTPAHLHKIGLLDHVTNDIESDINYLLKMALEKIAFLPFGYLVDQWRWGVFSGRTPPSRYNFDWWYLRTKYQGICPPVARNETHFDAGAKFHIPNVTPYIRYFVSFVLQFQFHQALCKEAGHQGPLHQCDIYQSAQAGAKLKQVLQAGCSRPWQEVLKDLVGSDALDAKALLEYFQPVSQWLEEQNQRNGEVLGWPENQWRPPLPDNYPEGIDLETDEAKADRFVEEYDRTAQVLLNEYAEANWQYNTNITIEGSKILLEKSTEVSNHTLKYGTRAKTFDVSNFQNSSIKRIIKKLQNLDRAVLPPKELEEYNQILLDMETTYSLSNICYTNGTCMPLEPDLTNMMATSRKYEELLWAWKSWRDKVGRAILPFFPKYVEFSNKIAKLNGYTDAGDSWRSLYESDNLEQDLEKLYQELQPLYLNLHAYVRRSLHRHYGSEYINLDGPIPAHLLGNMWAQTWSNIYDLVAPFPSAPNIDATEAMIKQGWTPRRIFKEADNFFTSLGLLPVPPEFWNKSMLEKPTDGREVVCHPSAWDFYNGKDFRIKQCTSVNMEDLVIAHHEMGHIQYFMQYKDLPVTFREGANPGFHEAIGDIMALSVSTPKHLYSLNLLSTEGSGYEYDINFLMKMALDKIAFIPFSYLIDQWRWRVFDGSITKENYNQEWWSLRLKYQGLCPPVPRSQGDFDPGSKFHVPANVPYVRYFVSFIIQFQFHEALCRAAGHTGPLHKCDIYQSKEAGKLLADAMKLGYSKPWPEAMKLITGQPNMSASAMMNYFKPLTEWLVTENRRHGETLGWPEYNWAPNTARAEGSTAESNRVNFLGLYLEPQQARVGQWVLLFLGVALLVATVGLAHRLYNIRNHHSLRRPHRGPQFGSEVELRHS
- Experimental Details: 50% Inhibitory potency against angiotensin I converting enzyme from mouse striatum.
IC50 reference
Quantity Name: IC50 (µM)

1) C[C@H](NC(=O)[C@H](Cc1ccccc1)NCC(=O)O)C(=O)O: 4
2) CC(C)C[C@H](NC(=O)[C@H](Cc1ccccc1)NCC(=O)O)C(=O)O: 2
3) CC(C)CC(NC(=O)C(CC(=O)O)Cc1ccccc1)C(=O)O (centres undefined): 20
